Where these numbers come from: patent US12077503B2

system: pigweed (Amaranthus retroflexus); experiment: Test A preemergence; assay type: in vivo; conditions: Amaranthus retroflexus, pre-emergence, 240 h, 125 g ai/ha, Preemergence, visual injury rating after approximately 10 d; read-out: Pigweed plant response rating (0 to 100 scale, 0 is no effect, 100 is complete control)

smiles_repr	target_entity	pest or weed control at 125 g/ha (%)
CN1CC[C@H](c2ccc(OC(F)(F)F)cc2)[C@@H](C(=O)Nc2cccc(Cl)c2F)C1=O	pigweed (Amaranthus retroflexus)	20
CN1CC[C@H](c2ccccc2C(F)(F)F)[C@@H](C(=O)Nc2ccccc2C(F)(F)F)C1=O	pigweed (Amaranthus retroflexus)	0
Cc1ccc([C@H]2CNC(=O)[C@@H]2C(=O)Nc2ccccc2S(C)(=O)=O)cc1C	pigweed (Amaranthus retroflexus)	0
Cc1ccc([C@H]2CN(C)C(=O)[C@@H]2C(=O)Nc2cccc(F)c2F)cc1C	pigweed (Amaranthus retroflexus)	20
O=C1NC[C@H](c2cc(C(F)(F)F)cs2)[C@H]1C(=O)Nc1ccccc1F	pigweed (Amaranthus retroflexus)	0
CN1CC[C@H](c2ccc(OC(F)(F)F)cc2)[C@@H](C(=O)Nc2ccc(F)c(F)c2F)C1=O	pigweed (Amaranthus retroflexus)	20
CSc1ccccc1NC(=O)[C@H]1C(=O)N(C)C[C@@H]1c1ccc(C)c(Cl)c1	pigweed (Amaranthus retroflexus)	0
CCOc1cccc([C@H]2CN(C)C(=O)[C@@H]2C(=O)Nc2ccccc2F)c1	pigweed (Amaranthus retroflexus)	0
COc1ccc([C@H]2CN(C)C(=O)[C@@H]2C(=O)Nc2cccc(F)c2F)cc1C(F)(F)F	pigweed (Amaranthus retroflexus)	60
CSc1ccccc1NC(=O)[C@H]1C(=O)N(C)C[C@@H]1c1ccc(F)c(Br)c1	pigweed (Amaranthus retroflexus)	40
CN1C[C@H](c2cc(F)cc(Cl)c2)[C@@H](C(=O)Nc2cccc(F)c2F)C1=O	pigweed (Amaranthus retroflexus)	20
